Test: HepG2 cytotoxicity bioluminescence assay (CellTiterGlo, ATP)
Format: cell-based, human
Details: human, uninfected HepG2-CD81 cells, two biological replicates listed in one cell
Measurement Name: IC50 at 72 h

Here's what some known entries look like.
# Compound, IC50 at 72 h
records = [
    ("COc1ccc(C[C@H](N)C(=O)N[C@H]2[C@@H](O)[C@H](n3cnc4c(N(C)C)ncnc43)O[C@@H]2CO)cc1", "0.114 µM"),
    ("O=C1C(O)=C([C@H]2CC[C@H](c3ccc(Cl)cc3)CC2)C(=O)c2ccccc21", "> 0.25 µM"),
    ("C[C@H]1[C@H](N2CCN(C(=O)Nc3ccc(C(F)(F)F)cc3)CC2)O[C@@H]2O[C@@]3(C)CC[C@H]4[C@H](C)CC[C@@H]1[C@@]24OO3", "6.99 µM"),
    ("C[C@H]1[C@H](N2CCN(C(=O)Nc3ccc(F)cc3)CC2)O[C@@H]2O[C@@]3(C)CC[C@H]4[C@H](C)CC[C@@H]1[C@@]24OO3", "6.44 µM"),
    ("C[C@H]1[C@H](N2CCN(C(=O)c3ccc(F)cc3)CC2)O[C@@H]2O[C@@]3(C)CC[C@H]4[C@H](C)CC[C@@H]1[C@@]24OO3", "10.2 µM"),
    ("C[C@H]1[C@H](N2CCN(C(=O)c3ccc(C(F)(F)F)cc3)CC2)O[C@@H]2O[C@@]3(C)CC[C@H]4[C@H](C)CC[C@@H]1[C@@]24OO3", "8.91 µM"),
    ("C[C@H]1[C@H](N2CCSCC2)O[C@@H]2O[C@@]3(C)CC[C@H]4[C@H](C)CC[C@@H]1[C@@]24OO3 [Artemiside 7, artemiside]", "> 25 µM"),
]

[in] Which measured IC50 at 72 h value corresponds to C[C@H]1[C@H](N2CCS(=O)(=O)CC2)O[C@@H]2O[C@@]3(C)CC[C@H]4[C@H](C)CC[C@@H]1[C@@]24OO3 ?
[out] > 50 µM

====

Experiment: HepG2 cytotoxicity bioluminescence assay (CellTiterGlo, ATP)
Assay type: cell-based, human
Details: human, uninfected HepG2-CD81 cells; uninfected HepG2, ATP bioluminescence
Measurement Name: EC50 at 72 h (µM)
Numbers only, in µM.

# Entry Smiles, Unit Tag, Numeric Value
measured = [
    ("C[C@H]1[C@H](N2CCN(C(=O)c3ccc(F)cc3)CC2)O[C@@H]2O[C@@]3(C)CC[C@H]4[C@H](C)CC[C@@H]1[C@@]24OO3", "µM", 8.32),
]

Now for another entry.
[in] For COc1ccc(C[C@H](N)C(=O)N[C@H]2[C@@H](O)[C@H](n3cnc4c(N(C)C)ncnc43)O[C@@H]2CO)cc1 , what is its reported EC50 at 72 h?
[out] 0.117

====

Test system: HepG2 cells
Test: HepG2 cytotoxicity bioluminescence assay (CellTiterGlo, ATP)
Assay type: cell-based, human
Conditions: two biological replicates listed in one cell
pIC50: −log10 of the molar value.
Please respond with reported pIC50 for every item in the list.

The cases that follow already have their pIC50 on record.
# Compound, Assay System, pIC50
data = [
    ("C[C@H]1[C@H](N2CCS(=O)(=O)CC2)O[C@@H]2O[C@@]3(C)CC[C@H]4[C@H](C)CC[C@@H]1[C@@]24OO3", "HepG2 cells", "< 4.30"),
    ("COc1ccc(C[C@H](N)C(=O)N[C@H]2[C@@H](O)[C@H](n3cnc4c(N(C)C)ncnc43)O[C@@H]2CO)cc1", "HepG2 cells", 6.92),
    ("O=C1C(O)=C([C@H]2CC[C@H](c3ccc(Cl)cc3)CC2)C(=O)c2ccccc21", "HepG2 cells", "< 6.60"),
]

[in] Sample C[C@H]1[C@H](N2CCSCC2)O[C@@H]2O[C@@]3(C)CC[C@H]4[C@H](C)CC[C@@H]1[C@@]24OO3 [Artemiside 7, artemiside] — what was its pIC50?
[out] < 4.60
